The measurements presented in this section are drawn from patent US20200270586A1.

# assayed-system: LgTrip 3546 (with His tag; SEQ ID NO: 51)
# Sequence (chain, as listed by the source): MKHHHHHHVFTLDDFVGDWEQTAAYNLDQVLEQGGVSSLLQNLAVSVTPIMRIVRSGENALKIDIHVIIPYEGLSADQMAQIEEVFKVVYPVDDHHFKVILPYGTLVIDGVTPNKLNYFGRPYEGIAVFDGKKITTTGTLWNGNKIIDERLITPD
# test: luminescence complementation; SmTrip9 Kd
# conditions: modification not given
quantity: pKd
Friendly reminder that pKd comes from taking -log10 of the concentration in mol/L.

Measured pKd of DKMLFTVTIQKWK [745] : 6.52
